experiment: Heat-stability on storage at 40° C. (HPLC content of undecomposed compound); type: physicochemical; details: solid storage, 15th day
measured-endpoint: remaining at 360 h (%)

Check out these entries, answers already filled in.
- molecule: "Cc1cc(C)c(S(=O)(=O)OCC(=O)C2CCCCC2)c(C)c1"
  remaining at 360 h [%]: 20
- molecule: "Cc1cc(C)c(S(=O)(=O)OCC(=O)C2CCC(C(C)C)CC2)c(C)c1 (centres unmarked)"
  remaining at 360 h [%]: 40
- molecule: "CCOc1ccc(S(=O)(=O)OCC(=O)C2CCC(CC)CC2)cc1 (centres unmarked)"
  remaining at 360 h [%]: 15

[1] O=C(CCC1CCCCC1)COS(=O)(=O)c1ccccc1
[2] CC(C)[C@H]1CC[C@](C)(C(=O)COS(=O)(=O)c2ccccc2)CC1
Req: Would you mind telling me which has the lower recorded remaining at 360 h between 1 and 2 ? Answer with the label corresponding to your selection.
Resp: 1
